Quantity Name: melting point

Supply melting point value. Item: NC1=NC(c2ccc(OC(F)(F)F)cc2)(c2ccc(F)c(-c3cncc(F)c3)c2)C2=NCCCN12 (centres unmarked) [Example 14]
94 to 105 °C

Annotate the molecule NC1=NC(c2ccc(OC(F)(F)F)cc2)(c2cccc(-c3cncc(F)c3)c2)C2=NCCCN12 (centres unmarked) [Example 19] with its measured melting point.
112 to 118 °C

Please supply the value of reported melting point for the item CCOc1ccc(C2(c3cccc(-c4cccnc4F)c3)N=C(N)N3CCCN=C32)cc1OCC (centres unmarked) [Example 25]
202 to 208 °C

Supply measured melting point of NC1=NC(c2ccc(OC(F)(F)F)cc2)(c2cccc(-c3cnccc3F)c2)C2=NCCCN12 (centres unmarked) [Example 27] in your reply.
83 to 97 °C

Specify measured melting point for NC1=NC(c2ccc(OC(F)F)cc2)(c2cccc(-c3cccnc3F)c2)C2=NCC3(COC3)CN12 (centres unmarked) [Example 46] .
96 to 107 °C

Output melting point of NC1=NC(c2cccc(-c3cccnc3F)c2)(c2ccc3c(c2)OC(F)(F)O3)C2=NCCCN12 (centres unmarked) [Example 43]
95 to 99 °C

Give the reported melting point for this molecule. NC1=NC(c2ccc(OC(F)(F)F)cc2)(c2ccc(F)c(-c3cccnc3F)c2)C2=NCCCN12 (centres unmarked) [Example 15]
99 to 122 °C

Give a short answer stating reported melting point for COc1ccc(C2(c3cccc(-c4cccnc4F)c3)N=C(N)N3CCCN=C32)cc1 (centres unmarked) [Example 21] .
117 to 121 °C

----------
- Tested System: human BACE2 (Homo sapiens, UniProt Q9Y5Z0)
- Sequence (Q9Y5Z0 63-518): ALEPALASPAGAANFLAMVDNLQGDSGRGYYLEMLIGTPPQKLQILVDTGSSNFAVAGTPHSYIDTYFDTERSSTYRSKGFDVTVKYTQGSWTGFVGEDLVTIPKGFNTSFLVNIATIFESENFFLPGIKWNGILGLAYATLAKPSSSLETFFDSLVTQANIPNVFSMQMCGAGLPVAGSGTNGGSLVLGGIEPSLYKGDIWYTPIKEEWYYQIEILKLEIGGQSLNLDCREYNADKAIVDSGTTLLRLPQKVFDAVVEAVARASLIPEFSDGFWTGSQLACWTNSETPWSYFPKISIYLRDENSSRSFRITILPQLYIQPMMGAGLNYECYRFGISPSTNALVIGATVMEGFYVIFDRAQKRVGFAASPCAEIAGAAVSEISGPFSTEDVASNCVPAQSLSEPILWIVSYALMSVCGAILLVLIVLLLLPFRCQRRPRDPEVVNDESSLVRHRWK
- Experiment Summary: Fluorescent kinetic assay for human recombinant BACE 2 (WABC-6 peptide substrate)
- Format: biochemical
- Setup Conditions: at 25 μM; read-out: BACE2. % inhibition
Quantity Name: inhibition at 25 µM (%)
Output spec: scalar in %, unitless text.

Return value of inhibition at 25 µM for input COc1ccc(C2(c3ccc(F)c(-c4cncnc4)c3)N=C(N)N3CCCN=C32)cc1 (stereo not drawn) [Example 23] , no commentary.
42

Assign inhibition at 25 µM to the following record: NC1=NC(c2cccc(-c3cccnc3F)c2)(c2ccc3c(c2)OC(F)(F)O3)C2=NCCCN12 (stereo not drawn) [Example 43]
53

For the compound NC1=NC(c2ccc(OC(F)(F)F)cc2)(c2cccc(-c3cncnc3)c2)c2nccn21 (stereo not drawn) [Example 5] , report inhibition at 25 µM.
50

Quick one: give measured inhibition at 25 µM for CC1(C)CN2C(N)=NC(c3ccc(OC(F)(F)F)cc3)(c3cccc(-c4cccnc4F)c3)C2=N1 (stereo not drawn) [Example 42]
52

Report inhibition at 25 µM for NC1=N[C@](c2ccc(OC(F)(F)F)cc2)(c2cccc(-c3cncc(Cl)c3)c2)C2=NCCCN12 [Example 32B]
34

Quick one: give measured inhibition at 25 µM for NC1=NC(c2ccc(OC(F)(F)F)cc2)(c2ccc(F)c(-c3cccnc3F)c2)C2=NCCCN12 (stereo not drawn) [Example 15]
44

Please report inhibition at 25 µM for the following compound: NC1=NC(c2ccc(OC(F)(F)F)cc2)(c2cccc(-c3ccc[n+]([O-])c3F)c2)C2=NCCCN12 (stereo not drawn) [Example 34]
25

Please give measured inhibition at 25 µM of the following entry: NC1=NC(c2ccc(OC(F)(F)F)cc2)(c2ccc(F)c(-c3cncnc3)c2)C2=NCCCN12 (stereo not drawn) [Example 13]
25

Determine from records and report inhibition at 25 µM for NC1=N[C@](c2ccc(OC(F)(F)F)cc2)(c2cccc(-c3cnccc3F)c2)C2=NCCCN12 [Example 33B]
25

Please supply the value of reported inhibition at 25 µM for the item COc1ccc(C2(c3cccc(-c4cncnc4)c3)N=C(N)N3CCCN=C32)cc1 (stereo not drawn) [Example 22]
60

Please give measured inhibition at 25 µM of the following entry: NC1=N[C@@](c2ccc(OC(F)F)cc2)(c2cccc(-c3cccnc3F)c2)C2=NCCCN12 [Example 45B]
60

Indicate its recorded inhibition at 25 µM; the compound in question is NC1=N[C@](c2ccc(OC(F)(F)F)cc2)(c2cccc(-c3cccnc3F)c2)C2=NCCCN12 (single isomer, unassigned) [Example 30A]
35

----------
- Tested System: human BACE1 (Homo sapiens, UniProt P56817)
- Sequence (P56817 46-501): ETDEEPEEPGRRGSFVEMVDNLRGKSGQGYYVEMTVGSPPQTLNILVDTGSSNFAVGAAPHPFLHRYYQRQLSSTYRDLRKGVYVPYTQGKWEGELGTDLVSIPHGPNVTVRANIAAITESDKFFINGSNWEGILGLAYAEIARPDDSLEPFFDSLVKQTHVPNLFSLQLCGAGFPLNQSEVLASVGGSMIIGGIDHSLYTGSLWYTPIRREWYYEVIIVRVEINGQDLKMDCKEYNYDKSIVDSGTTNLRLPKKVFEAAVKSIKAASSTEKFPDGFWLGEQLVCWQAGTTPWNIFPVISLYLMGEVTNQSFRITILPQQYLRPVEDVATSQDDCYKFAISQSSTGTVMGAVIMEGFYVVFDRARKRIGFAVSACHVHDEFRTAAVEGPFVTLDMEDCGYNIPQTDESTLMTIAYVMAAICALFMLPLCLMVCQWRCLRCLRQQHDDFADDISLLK
- Experiment Summary: Fluorescent kinetic assay, inhibition of BACE1 (WABC-6 peptide substrate)
- Type: biochemical
- Setup Conditions: read-out: IC50 (μM) BACE1.
Quantity Name: IC50 (µM)
Note: unit µM is implicit; provide only the numeric part.

Assign IC50 to the following record: NC1=NC(c2cccc(-c3cccnc3F)c2)(c2ccc3c(c2)OCO3)C2=NCCCN12 (stereo not shown)
0.16

----------
- Tested System: human BACE1 (Homo sapiens)
- Experiment Summary: Fluorescent kinetic assay, inhibition of BACE1 (WABC-6 peptide substrate)
- Format: biochemical
- Setup Conditions: 10 nM enzyme, 25 μM substrate, pH 4.5, room temperature; read-out: IC50 (μM) BACE1.
- Experimental: Evaluation of the Enzyme Activity of Test Compounds and the Inhibition of hBACE1, MuBACE1 and hBACE2 by Test Compounds The concentration is determined by absorbance at 354 nm using an extinction coefficient ε of 18172 M^−1cm^−1, The substrate stock is stored in small aliquots at −80° C. [Substrate Stock]=ABS^354 nm*10^6/18172 ([…]) […] Readings at λex 320 nm and λem 420 nm are taken every 40-sec for 30 min at room temperature to determine the linear slope for substrate cleavage rate (vi).
Quantity Name: IC50 (µM)
Answer with a number only, understood to be in µM.

Complete the entry with IC50 for NC1=NC(c2ccc(OC(F)F)cc2)(c2cccc(-c3cccnc3F)c2)C2=NCC3(COC3)CN12 (centres unmarked)
0.01

Give a short answer stating reported IC50 for NC1=N[C@@](c2ccc(OC(F)(F)F)cc2)(c2cccc(-c3cnccc3F)c2)C2=NCCCN12 [Example 33A] .
0.05

Supply recorded IC50 for COc1ccc(C2(c3ccc(F)c(-c4cccnc4F)c3)N=C(N)N3CCCN=C32)cc1 (centres unmarked) here.
0.06

Provide measured IC50 value, entry: COCOc1ccc(C2(c3cccc(-c4cccnc4F)c3)N=C(N)N3CCCN=C32)cc1 (centres unmarked)
0.093

Look up and state reported IC50 for NC1=NC(c2ccc(OC(F)F)cc2)(c2cccc(-c3cccnc3F)c2)C2=NCC3(CCC3)CN12 (centres unmarked)
0.01

Supply recorded IC50 for NC1=NC(c2cccc(-c3cccnc3F)c2)(c2ccc3c(c2)OC(F)(F)O3)C2=NCCCN12 (centres unmarked) here.
0.74

Give reported IC50 value for NC1=NC(c2ccc(OC(F)(F)F)cc2)(c2cccc(-c3cncnc3)c2)c2nccn21 (centres unmarked)
0.23

Please report the measured IC50 for NC1=N[C@@](c2ccc(OC(F)(F)F)cc2)(c2cccc(-c3cncc(Cl)c3)c2)C2=NCCCN12 [Example 32A]
0.029

----------
- Tested System: human BACE1 (Homo sapiens, UniProt P56817)
- Experiment Summary: Fluorescent kinetic assay, inhibition of BACE1 (WABC-6 peptide substrate)
- Type: biochemical
- Setup Conditions: 10 nM enzyme, 25 μM substrate, pH 4.5, room temperature; read-out: IC50 (μM) BACE1.
Category key, based on recorded IC50: bin 1 (below 0.06 µM), bin 2 (0.06 µM to below 0.1 µM), bin 3 (0.1 µM or more)

Exam item: assign NC1=NC(c2ccc(OC(F)(F)F)cc2)(c2ccc(F)c(-c3cncc(F)c3)c2)C2=NCCCN12 (stereo not shown) [Example 14] to the correct category.
bin 3

Band for CC1(C)CN2C(N)=NC(c3ccc(OC(F)(F)F)cc3)(c3cccc(-c4cccnc4F)c3)C2=N1 (stereo not shown) [Example 42] ?
bin 3

Record NC1=NC(c2ccc(OC(F)F)cc2)(c2cccc(-c3cccnc3F)c2)C2=NCC3(CC3)CN12 (stereo not shown) [Example 44] — which class?
bin 1

Categorize the following entry: NC1=NC(c2ccc(OC(F)F)cc2)(c2cccc(-c3cccnc3F)c2)C2=NCCCN12 (stereo not shown) [Example 41]
bin 1

Note: place this compound into its band. Item: CCOc1ccc(C2(c3cccc(-c4cccnc4F)c3)N=C(N)N3CCCN=C32)cc1OCC (stereo not shown) [Example 25]
bin 2

State the class of the compound shown: COc1ccc(C2(c3cccc(-c4cccnc4F)c3)N=C(N)N3CCCN=C32)cc1 (stereo not shown) [Example 21]
bin 2

Bin this entry: COc1ccc(C2(c3ccc(F)c(-c4cncnc4)c3)N=C(N)N3CCCN=C32)cc1 (stereo not shown) [Example 23]
bin 3

Just checking, what class would you give NC1=NC(c2ccc(OC(F)(F)F)cc2)(c2cccc(-c3cncc(F)c3)c2)C2=NCCCN12 (stereo not shown) [Example 19] here?
bin 2

Tag the class for NC1=NC(c2ccc(OC(F)(F)F)cc2)(c2cccc(-c3cncc(Cl)c3)c2)C2=NCCCN12 (stereo not shown) [Example 20]
bin 1

Using the reported IC50, which band applies to NC1=NC(c2ccc(OC(F)(F)F)cc2)(c2ccc(F)c(-c3cncnc3)c2)C2=NCCCN12 (stereo not shown) [Example 13] ?
bin 3

Assign a bin to NC1=N[C@](c2ccc(OC(F)F)cc2)(c2cccc(-c3cccnc3F)c2)C2=NCCCN12 [Example 45A]
bin 1

Just for reference, patent US20090042912A1 is where these values come from.
